Test system: HepG2
measurementDescription: Upregulation of LDL receptor expression in human HepG2 cells assessed as DiI-LDL uptake after 19 hrs
Format: functional
measurementConditions: HepG2, 19 h
Property: EC25; scope: individual compounds
parameterMeasured: EC25

1. COc1cccc(C2(C(=O)NS(=O)(=O)Nc3c(C(C)C)cccc3C(C)C)CCN(c3ccccc3OC)CC2)c1 > 10000 nM
2. COc1cccc(C2(C(=O)NS(=O)(=O)Oc3c(C(C)C)cccc3C(C)C)CCN(c3nc4ccccc4s3)CC2)c1 260 nM
3. CC(C)c1cccc(C(C)C)c1OS(=O)(=O)NC(=O)C1(c2cccc(OCCCO)c2)CCN(c2ncccn2)CC1 > 10000 nM
4. COc1cccc(C2(C(=O)NS(=O)(=O)Oc3c(C(C)C)cccc3C(C)C)CCN(C(=O)c3ccccc3)CC2)c1 > 10000 nM
5. COc1cccc(C2(C(=O)NS(=O)(=O)Oc3ccccc3C3CCCC3)CCN(c3ccccc3OC)CC2)c1 690 nM
6. COc1cccc(C2(C(=O)NS(=O)(=O)Oc3c(C(C)C)cccc3C(C)C)CCN(c3nccc(C)n3)CC2)c1 500 nM
7. CCCCn1c(=O)c(NC(=O)Nc2c(C(C)C)cc(N)cc2C(C)C)c(-c2cccc(OCCCO)c2)c2cccnc21.Cl.O 490 nM
8. CC(C)c1cccc(C(C)C)c1OS(=O)(=O)NC(=O)C1(c2cccc(O)c2)CCN(c2ncccn2)CC1 > 10000 nM

---

System: HepG2
measurementDescription: Upregulation of LDL receptor expression in human HepG2 cells assessed as DiI-LDL uptake after 19 hrs
Type: functional
measurementConditions: HepG2, 19 h
parameterMeasured: EC25

1. COc1cccc(C2(C(=O)NS(=O)(=O)Oc3c(C(C)C)cccc3C(C)C)CCN(C)CC2)c1 > 10 µM
2. COc1cccc(C2(C(=O)NS(=O)(=O)Oc3c(C(C)C)cccc3C(C)C)CCN(c3ccccc3OC)CC2)c1 0.37 µM
3. COc1cccc(C2(C(=O)NS(=O)(=O)Oc3c(C)cccc3C)CCN(c3ccccc3OC)CC2)c1 > 10 µM
4. COc1cccc(C2(C(=O)NS(=O)(=O)Oc3c(C(C)C)cccc3C(C)C)CCN(c3ccccc3)CC2)c1 1.52 µM
5. COc1cccc(C2(C(=O)NS(=O)(=O)Oc3ccccc3C)CCN(c3ccccc3OC)CC2)c1 3.88 µM
6. COc1cccc(C2(C(=O)NS(=O)(=O)Oc3c(C(C)C)cccc3C(C)C)CCN(C(C)=O)CC2)c1 > 10 µM
7. COc1cccc(C2(C(=O)Nc3c(C(C)C)cccc3C(C)C)CCN(c3ccccc3OC)CC2)c1 > 10 µM
8. COc1cccc(C2(C(=O)NS(=O)(=O)Oc3c(C(C)C)cccc3C(C)C)CCN(c3ncccc3OC)CC2)c1 > 10 µM

---

System: HepG2
measurementDescription: Upregulation of LDL receptor expression in human HepG2 cells assessed as DiI-LDL uptake after 19 hrs
Type: functional
measurementConditions: HepG2, 19 h
parameterMeasured: EC25

1) COc1cccc(C2(C(=O)NS(=O)(=O)Oc3c(C(C)C)cccc3C(C)C)CCNCC2)c1 > 10 µM
2) COc1cccc(C2(C(=O)NS(=O)(=O)Oc3c(C(C)C)cccc3C(C)C)CCN(c3nccc(C(F)(F)F)n3)CC2)c1 > 10 µM
3) CCCc1ccccc1OS(=O)(=O)NC(=O)C1(c2cccc(OC)c2)CCN(c2ccccc2OC)CC1 4.07 µM
